# assayProcedure: yeast display, Sf9 membrane polyspecificity reagent, FACS + sequencing; frameworks hold sequencing errors
experimentalReadout: polyreactivity (PSR sort gate)

# macromoleculeSequence, testValue
rows = [
    ("QVQLVESGGGLVQAGGSLRLSCAASGRIFGDYGMGWYRQAPGNERELVAAITDRGGTTYYADSVKGRFTISRDNAKNTVYLQMNSLKPEDTAVYYCNARQSDIFDYDYWGQGTQVTVSS", "low polyreactivity"),
    ("QVQLVESGGGLVQAGGSLRLSCAASGRNFGRYAMGWYRQAPGKEMELVAAISGSGGTTYYADSVKGRFTISRDNAKNTVYLQMNSLKPEDTAVYYCAARYWVGKVWKYDYWGQGTQVTVSS", "high polyreactivity"),
    ("QVQLVESGGGLVQEVGSLRLSCAASGSTIYWYAMGWSRQAPGKEMEIVAAISLGSGSTYYADSVKGRFTISRDNAKNTVYLQMNSLKPEDTAVYYCATRGSAWGRSYYYWGQGTQVTVSS", "high polyreactivity"),
    ("QVQLVESGGGLVQAGGSLRLSCAASGGTFYRYAMGWYRQAPGIERELVAAISGGRGRTYYADSVKGRFTISRDNAKNTVYLQMNSLKPVDTAVYYCSNKPYGAVSGSDYDYWGQGTQVTVSS", "high polyreactivity"),
    ("QVQLVESGGGLVQAGGSLRLSCAASGSIFHGNAMGWNRQAPGKERELVATISSGGSTYYADSVKGRFTISRDNAKNTVYLQMNSLKPEDTAVYYCAAEYWNGPYYGDPFEYDYWGQGTQVTVSS", "low polyreactivity"),
    ("QVQLVESGGGLVQAGGSLRLSCAASGRTFEGNAMGWYRQAPGKERELVAAINSSGGSTYYADSVKGRFTISRDNAKNTVYLQMNSLKPEDTAVYYCNAVAGPQGVKLYDYWGQGTQVTVSS", "low polyreactivity"),
    ("QVQLVESCGGKVQAGGSLRLSCAASGRIFWYYAMVWYRQAPGKERELVAAIDRTRVRTSYADSVKGRFTISRDNAKNTVYLQMNSLKPEDTAVYYCAADLVYGHYVTYWNSYVYWGQGTEVTVSS", "low polyreactivity"),
    ("PVQLVESGGGLVQAGGSLRLSCAASGSTFKRYAMGWYRQAPGKERELVAAISSGGTTYYADSVTGRFTISRDNAKNTVYLQMISLKPEDSAVYDCIARKYGWDQRILIYDYWGQGTQVTVSS", "high polyreactivity"),
    ("QVQLVESGGGLVQAGGSLRLSCAATGSIFRGYAMGWYRQAPGKERELVAAITSGGSTNYADSVKGRFTISRDNAKNTVYLQMNSLKPEDTAVYYCAKDLALVAPLSDYWGQGTQVTVSW", "low polyreactivity"),
    ("QVQLVESGGGLVQAGGSLRLSCAASGIIFHFNAMGWYRQARGKERELVASITRGGNTNYADSVKGRFTISRDNAKNTVYLQMNSLKPEDTAVYYCAAKYRSRYDWGQGTQVTVSS", "low polyreactivity"),
    ("QVQLVESGGGLVQAGGSLRLSCAASGSIFNGYAMGWYRQAPGKERELVAAISWNGGRTYYADSVKGRFTISRDNAKNTVYLQMNSLKPEDTAVYYCNKVSGYDVDYWGQGTQVTVSS", "high polyreactivity"),
]

* * *

# assayProcedure: yeast display, Sf9 membrane polyspecificity reagent, FACS + sequencing; frameworks hold sequencing errors

# macromoleculeSequence, polyreactivity (PSR sort gate)
records = [
    ("QVQLVESGGGLVQAGGSLRLSCAPSGFTFRFYVMGWYRQAPGKERELVAAISSSGGSTYYADSVKGRFTISRDNAKYTVYLQMNSMKPEDTAVYYCAADVPGARVSYWTYSGWHYDYWGQGTQVTVSS", "high polyreactivity"),
    ("QVQLVESGGGLVQAGGSLRLSCAASGSTFAYYAMGWYRQAPGKERELVAAIDDTGSTNYADSVKGRFTISRDNAKYTVFLQMNSLKPEYTAVYYCNAQPDGTYDYWGQGTQVTVSS", "low polyreactivity"),
    ("QVQLVESGGRLVQAGGSLRLSCDPSGRTFWYYAMGWYRQAPGKERELVASISLSGSRTNYADSVKGRFTISRDNAKNTVYLQMNSLKPEDTAVYYCAADNFRQFGEYDYWGQGTQVTLSS", "low polyreactivity"),
    ("QVQLVESGGGLVQAGGSLRLSCAASGYIFPYNAMGWYRQAPGKERELVATITWTGGSKYYADSVKGRFTISRDNAKNTVYLQMNSLKPEDTAVYDCADDLSIRYDHEYGYWGQGTQVTVSS", "low polyreactivity"),
    ("QVQLVESGGGLVQAGGSLRLSCAASGRIFGTNARVWYRQAPGKERELVADITSGGSTNYADSVKGRFTISRDNAKNTVYLQMNSLKPEDTAVYYCAADVIGDLRWYRDEYWGQGTQVTVSS", "low polyreactivity"),
    ("QVQLVESGGGLVQAGGSLRLSCAASGITFKDYAMGWYRQATGKERELVAVISYSGGSTYYADSVKGRFTISRDNAKNTVYLEMNSLKPEDTAVYYCAARVGPEYDWGQGTQVTVSS", "low polyreactivity"),
    ("QVQLVESGGGLVQAGGSLRLSCAASGSIFDDNAMGWYRQAPGKERELVAAISANDGSTYYADSAKGRFTISRDNAKNTVYLQMNTLKPEDTAVYYCAAERYLSFDRYLYEYYYWGQGTQVTVSS", "low polyreactivity"),
    ("QVQLVESGGGLVQAGGSLRLSCAASGFIFPAYTMGWYRQAPGKERELVAAITWSGGSTYYADSVKGRFTISRDNAKNTVYLQMKSLKPEDTAVYYCAAYVSRKYRKGPRFAYDYWGQGTQVTVSS", "high polyreactivity"),
    ("QVQLVESGGGLVQAGGSLRLSCAASGIIFYVYAMGWYRQAPGKERELVAAISTSGGSTYYADSVKGRFTISRDNAKNTVYLQMNSLKPEDTAVYYCAADRPARSPKGSVDYWGQGTQVTVSS", "high polyreactivity"),
    ("QVQLVESGGGLVQAGGSLRLSCASSGRTFPAYAMGWYRPAPGKERELVAAISSSGSRTYYAASVKGRFTISRDNAKNTVYLQMNRLIPEDTAVYYCAARGGRRQKVNRDDYWGQVTQVTVSS", "high polyreactivity"),
    ("QVQLVESGGGLVQAGGSLPLSCAASGSIFDGYAMGWYSQAPGKDRELDAGISKSGGRTYYADSVKGRFTISRDNAKNTVYLQMNSLKPEDTAVYYCATPGIRYDRVYRYDYWGQGTQVTVSS", "high polyreactivity"),
]

* * *

# assayProcedure: yeast display, Sf9 membrane polyspecificity reagent, FACS + sequencing; frameworks hold sequencing errors
experimentalReadout: polyreactivity (PSR sort gate)

# macromoleculeSequence, experimentalReadout, testValue
data = [
    ("QVQLVESGGGLVQAGGSLRLSCAASGSIFTQYAMGWYRQAPGKERELVAAITSSGGSTHYADSVKGRFTISRDNAKNTVYLQMNSLKPEDTAVYYCAVPSFVYATFPYGYWGQGTQVTVSS", "polyreactivity (PSR sort gate)", "low polyreactivity"),
    ("QVQLVESGGGLVQAGGSLRLSCAASGFTFVSYAMGWYRQAPGKERELVAAISKRGGSTSYADSVKGRFTISRDNAKNTVYLQMNSLKPEDTAGYYCAARYGSSYSWSNYWGQGTQVTVSS", "polyreactivity (PSR sort gate)", "high polyreactivity"),
    ("QVQLVESGGGLVQAGGSLRLSCAASGRTFGDYAKGWYRQAPGKERELVAAISKSGGITYYADSVKGRFTISRDNAKNTVYLQMNSLKPEDTAVYYCAARRSGEGNYWGQGTQVTVSS", "polyreactivity (PSR sort gate)", "high polyreactivity"),
    ("QVQLVESGGGLVQAGGSLRLSCAASGRTFAYYAMGWYRPAPGKERELVATITRSGGITSYADSVKGRFTISRDNAKNTVYLQMSSLKPADTAVYYCNTGYSNRLHDYWGQGTQVTVSS", "polyreactivity (PSR sort gate)", "high polyreactivity"),
    ("QVQLVESGGGLVQAGGSLRLSCAGSGIIFHLYAMGWYRQAPGKERELVAAISWNGSSTYYADSVKGRFTISRDNAKNTVYLQMNSLKPEDTAVYYCAASYGYFEDYGYWGQGTQVTVSS", "polyreactivity (PSR sort gate)", "low polyreactivity"),
]

* * *

# assayProcedure: yeast display, Sf9 membrane polyspecificity reagent, FACS + sequencing; frameworks hold sequencing errors

# macromoleculeSequence, polyreactivity (PSR sort gate)
data = [
    ("QVHLVESGGGLVQAGGILRLSCSAYGSIFDVNAKGWYRQSPGKERELVAAISDSGGSTYYADSVKGRFTISRDNAKNTVYLQMNSLKPEDTSVYYCNADWYWYNYYDFDYWGQGTQVTVSS", "low polyreactivity"),
    ("QVQLVESAGGLVQAGGSLSLSCAASGYTYWYAMGWYRQAPGKERELVAAIDSGVTRTYYADSVKGRFTISRDNAKNTVYLQMNSLKPEDTAVYYCAAGLSTDYGYWGQGTQVTVSS", "low polyreactivity"),
    ("QVQLVESGGGLVQAGGSLRLSCAASGRTFSAYTMGWYRQAPGKERELVAAISRRGGSTYYADSVKGRFTISRDNAKNTVYLQMNSLKPEDTAVYYCATKSQYDYDYWGHGTQVTVSS", "high polyreactivity"),
    ("QVQLVESGGGLVQAGGSLRLSCAASGSIFSSNTMGWYRPAPGKERELVAAITSGGGTYYADSVKGRFTISRDNAKNTVSLQMNSLKPEDTAVYYCAAQRVYKSSPSYDYWGQGTLVTVSS", "low polyreactivity"),
    ("QVQLVESGGGLVQAGGSLRLSCAASGSTFYSNAMGWYRQAPGKERELVATISFRGGRTYYADSVKGRFTISRDNAMNTVYLQMNSLKPEDTAVYYCNAEVSGYPYTYGYRGQGTQVTVSS", "low polyreactivity"),
    ("QVQLVESGGGLVQAGGSLRLSCAATGLTFWVNAMAWYRQAPGKERELVADITRSGGITNYADSVKGRFTISRDNANNTVYLQMNSLKPEDNAVYYCNADQRVDHDDFDYWGKGTQVTVSS", "low polyreactivity"),
    ("QVQLEESGGGLVQAGGSLRLTCAASGSTFRYYALGWYRQAPGKERELVAAISGSGGRTYYADSVKGRFTISRDNAKNTVYLQMNSLKPEDTEVYYCNTRGRRTDYDYWGQGTQVTVSS", "high polyreactivity"),
    ("QVQLVESGGGLVQAGGSLRLSCAASGRTFKINAMGWYRPAPGKERELVAAISRGGGSTYADSVKGRFTISRDNAKNTVYLQMNSLKPEDTAVYYCAARVYGTRKINYSWGQGTQVTVSS", "high polyreactivity"),
    ("QVQLVESGGGLVQAGGSLRLSCAASGFIFGNYVLGWSRQAPGKERELVAAISESGSRTYYADSVKGRFTISRDYAKKTVYLQMNSLKPEDTAVYYCAAALFSYYGEYDYWGQGTQVTVSS", "low polyreactivity"),
    ("QVQLVESGGGLVQAGGSLRLSCAASGSTFYDNAMGWYRQAPGKERELVARITWNGGRTYYADSVKGRFTISRDNAKNTVYLQMNSLKPEDTAVYYCNAVYWGYGKYDYWGQGTQVTVSS", "high polyreactivity"),
    ("QVQLVESGGGLVQAGGSLRISCAASGFIFWIYAMGWYRQAPGKEREFVAVITYRGDTTYYADSVKGRFTISRDNAKNTVYLQMNSLKPEDTAVYYCAAYTVQKYGYWGQGTQVTVSS", "low polyreactivity"),
]
